- target: T1, nSR100 (Mus musculus, UniProt Q8BKA3)
- T1 construct: host or cells: mouse N2A cells
- T1 sequence (Q8BKA3 1-608): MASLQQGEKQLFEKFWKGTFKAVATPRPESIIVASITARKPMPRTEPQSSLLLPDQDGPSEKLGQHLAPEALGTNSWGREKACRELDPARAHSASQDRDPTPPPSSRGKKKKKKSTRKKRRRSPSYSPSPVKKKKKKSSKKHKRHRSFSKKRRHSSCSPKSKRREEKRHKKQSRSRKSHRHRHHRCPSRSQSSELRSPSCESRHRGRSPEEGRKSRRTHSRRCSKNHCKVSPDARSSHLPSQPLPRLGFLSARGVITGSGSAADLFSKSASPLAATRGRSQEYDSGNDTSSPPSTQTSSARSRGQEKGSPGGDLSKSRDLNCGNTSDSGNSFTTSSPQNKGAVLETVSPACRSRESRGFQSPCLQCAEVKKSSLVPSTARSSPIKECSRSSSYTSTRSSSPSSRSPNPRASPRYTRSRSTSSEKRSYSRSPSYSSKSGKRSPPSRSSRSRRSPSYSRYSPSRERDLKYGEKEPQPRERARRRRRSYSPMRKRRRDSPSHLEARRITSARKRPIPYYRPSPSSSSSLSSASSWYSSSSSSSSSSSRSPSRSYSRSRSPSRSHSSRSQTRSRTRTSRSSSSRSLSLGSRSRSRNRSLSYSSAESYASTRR
- experimentSummary: AP-MS nSR100 interaction partners from mouse N2A cells (Table 5)
- Type: binding
- cond: bait Srrm4, biological replicate 1 (first number of the cell), AP-MS
quantityName: Spectra (number of spectra for the prey in the purification of the bait)
Output spec: single numeric token, no unit.

*Q* For Luc7l2 (protein, UniProt Q7TNC4 1-392, looked up) Putative RNA-binding protein …: MSAQAQMRAMLDQLMGTSRDGDTTRQRIKFSDDRVCKSHLLNCCPHDVLSGTRMDLGECLKVHDLALRADYEIASKEQDFFFELDAMDHLQSFIADCDRRTEVSKKRLAETQEEISAEVAAKAERVHELNEEIGKLLAKVEQLGAEGNVEESQKVMDEVEKARAKKREAEEVYRNSMPASSFQQQKLRVCEVCSAYLGLHDNDRRLADHFGGKLHLGFIEIREKLEELKRVVAEKQEKRNQERLKRREEREREEREKLRRSRSHSKNPKRSRSREHRRHRSRSMSRERKRRTRSKSREKRHRHRSRSSSRSRSRSHQRSRHSSRDRSRERSKRRSSKERFRDQDLASRDRDRSSRDRSPRDRDRKDKKRSYESANGRSEDRRSSEEREAGEI , what is its reported Spectra (number of spectra for the prey in the purification of the bait)?
*A* 35
